measurement_kind: MEAN CpLDH INHIBITION (%)
API: value field is a number in %; no unit string.

The molecule Cc1c(Cl)cccc1NC(=O)c1cccc([N+](=O)[O-])c1O [NSC328477] , tested on recombinant CpLDH protein (Cryptosporidium parvum, UniProt Q9GT92, F198L/K295E/R251K), showed MEAN CpLDH INHIBITION (%) of -31.70

Assay recombinant CpLDH protein (Cryptosporidium parvum, UniProt Q9GT92, F198L/K295E/R251K), sample COC(=O)NC1C(C)OC(OC2C/C=C(/C)C3C=CC4C(OC5CC(OC6CC(O)C(OC7CC(O)C(OC)C(C)O7)C(C)O6)C(O)C(C)O5)C(C)CC(C)C4C3(C)/C(O)=C3\C(=O)OC4(CC(C)C(CO)=CC4/C=C\2C)C3=O)CC1(C)[N+](=O)[O-] (stereo not shown) [NSC363182] , MEAN CpLDH INHIBITION (%) read: -79.07

Kindly note: recombinant CpLDH protein (Cryptosporidium parvum, UniProt Q9GT92, F198L/K295E/R251K), CC1(c2cccc3ccccc23)OC(=O)c2ccccc21 (stereo not shown) [NSC97703] , MEAN CpLDH INHIBITION (%) value reported: -3.23

Fill in: recombinant CpLDH protein (Cryptosporidium parvum, UniProt Q9GT92, F198L/K295E/R251K) MEAN CpLDH INHIBITION (%) for O=NN(CCCl)C(=O)NCc1ccc[n+]([O-])c1 [NSC307454] = -54.21

Entry Cc1cc(Cl)ccc1N1C(=O)C(=O)C(c2nc3ccccc3o2)C(=O)C1=O [NSC623051] , tested on recombinant CpLDH protein (Cryptosporidium parvum, UniProt Q9GT92, F198L/K295E/R251K), has a reported MEAN CpLDH INHIBITION (%) of -30.82

GET /values?item= C[CH2][Ge]([CH2]C)([CH2]C)[O]C(=O)CCC(=O)[O][Ge]([CH2]C)([CH2]C)[CH2]C [NSC653558] &system= recombinant CpLDH protein (Cryptosporidium parvum, UniProt Q9GT92, F198L/K295E/R251K) returns MEAN CpLDH INHIBITION (%): -17.98

Item: Cc1ccc(N=N/C(=N\NC(=O)c2ccc(C)cc2)c2ccc(N(CCC#N)CCC#N)cc2C)cc1 [NSC703550] | System: recombinant CpLDH protein (Cryptosporidium parvum, UniProt Q9GT92, F198L/K295E/R251K) | MEAN CpLDH INHIBITION (%): -165.27

// assay recombinant CpLDH protein (Cryptosporidium parvum, UniProt Q9GT92, F198L/K295E/R251K), entry CO[C@@H](/C(C)=C/C=C/C(C)=C/c1coc(C)n1)[C@@H](C)[C@@H]1C[C@H](O)[C@@]2(C)O[C@@H]2/C=C/[C@@H](C)[C@H]2C[C@H](CC(=O)O2)C[C@@H]2O[C@H]2C(=O)O1 [NSC332598] , MEAN CpLDH INHIBITION (%) value = -143.77

Measured on recombinant CpLDH protein (Cryptosporidium parvum, UniProt Q9GT92, F198L/K295E/R251K), C=C1C(=O)OC2C1CC1OC2C(C)CCC/C(C)=C\CCC1(C)O (stereo not shown) [NSC282752] has a documented MEAN CpLDH INHIBITION (%) of -63.64

Bench note, recombinant CpLDH protein (Cryptosporidium parvum, UniProt Q9GT92, F198L/K295E/R251K): entry Cc1ccc2ccc3ccc(C)nc3c2n1 [NSC4280] , its MEAN CpLDH INHIBITION (%) = -27.03

The molecule COc1cc(/C=C(\OC(C)=O)c2ccc3c(c2)OCO3)cc(OC)c1OC [NSC647363] , when measured on recombinant CpLDH protein (Cryptosporidium parvum, UniProt Q9GT92, F198L/K295E/R251K), yielded MEAN CpLDH INHIBITION (%) of -3.74

Entry Cc1cc2c(cc1C)[n+](=O)c(C(=O)/C=C/c1ccccc1[N+](=O)[O-])c(C)n2[O-] [NSC621486] : MEAN CpLDH INHIBITION (%) on recombinant CpLDH protein (Cryptosporidium parvum, UniProt Q9GT92, F198L/K295E/R251K) = -0.42

Here CN1CCN(CCSC2Cc3cc(Cl)ccc3Sc3ccccc32)CC1 (stereo not shown) [NSC635366] was tested on recombinant CpLDH protein (Cryptosporidium parvum, UniProt Q9GT92, F198L/K295E/R251K), and its MEAN CpLDH INHIBITION (%) came to -12.08

Lab note: molecule Cc1nnc(-n2c(O)cc(=O)n(-c3ccccc3)c2=S)nc1/C=C/c1ccc(N(C)C)cc1 [NSC698031] tested on recombinant CpLDH protein (Cryptosporidium parvum, UniProt Q9GT92, F198L/K295E/R251K); recorded MEAN CpLDH INHIBITION (%) was -6.31

Bench note, recombinant CpLDH protein (Cryptosporidium parvum, UniProt Q9GT92, F198L/K295E/R251K): CC(C)c1cccc(O)c(=O)c1 [NSC18804] , MEAN CpLDH INHIBITION (%) reads -36.91

Result for CCOC(=O)C(C)NC(=O)N(C)C12CC3CC(CC(C3)C1)C2 (stereo not shown) [NSC208913] , tested on recombinant CpLDH protein (Cryptosporidium parvum, UniProt Q9GT92, F198L/K295E/R251K), MEAN CpLDH INHIBITION (%): -30.10
